# study-target: AAK1 (Homo sapiens)
# run-description: biochemical
# Design: kinase domain; Thermal shift assay (DSF, SYPRO Orange), 2 uM kinase domain, mean delta Tm of triplicates versus DMSO
# conditions: read-out: AAK1
Please enter T where ΔTm at 12.5 µM is greater than or equal to 0.7 °C, and F where it is lower.

- molecule: "Cn1c(Nc2ccc(C(F)(F)F)cc2)nc2cc(Oc3ccnc(-c4ncc(C(F)(F)F)[nH]4)c3)ccc21 [RAF265]"
  label-value: "T"
- molecule: "CO[C@@H]1[C@H](N(C)C(=O)c2ccccc2)C[C@H]2O[C@]1(C)n1c3ccccc3c3c4c(c5c6ccccc6n2c5c31)C(=O)NC4 [Midostaurin]"
  label-value: "T"
- molecule: "Cc1ccc(NC(=O)c2ccc(CN3CC[C@H](N(C)C)C3)c(C(F)(F)F)c2)cc1Nc1nccc(-c2cncnc2)n1 [Bafetinib]"
  label-value: "T"
- molecule: "COc1cc2c(Oc3ccc4[nH]c(C)cc4c3F)ncnc2cc1OCCCN1CCCC1 [Cediranib]"
  label-value: "F"
- molecule: "CCn1c(-c2nonc2N)nc2cnc(Oc3cccc(NC(=O)c4ccc(OCCN5CCOCC5)cc4)c3)cc21 [GSK269962]"
  label-value: "T"

Now, please, on to the next molecule.
State whether the measured ΔTm at 12.5 µM reaches 0.7 °C, counting equality as reaching it, for CN1CCN(c2ccc3nc(-c4c(N)c5c(F)cccc5[nH]c4=O)[nH]c3c2)CC1 [Dovitinib] F

* * *

# study-target: AAK1 (Homo sapiens, UniProt Q2M2I8)
# Sequence (Q2M2I8 27-365 limits assumed): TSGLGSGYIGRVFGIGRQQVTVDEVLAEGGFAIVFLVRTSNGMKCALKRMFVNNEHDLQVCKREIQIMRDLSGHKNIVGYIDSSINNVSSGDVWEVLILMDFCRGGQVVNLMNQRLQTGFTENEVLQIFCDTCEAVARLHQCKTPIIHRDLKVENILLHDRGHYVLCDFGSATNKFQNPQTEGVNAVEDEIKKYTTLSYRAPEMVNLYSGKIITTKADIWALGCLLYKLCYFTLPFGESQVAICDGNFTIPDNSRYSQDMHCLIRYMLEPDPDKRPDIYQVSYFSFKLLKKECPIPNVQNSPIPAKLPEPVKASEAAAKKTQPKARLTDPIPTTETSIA
# run-description: biochemical
# Set-up: kinase domain; Thermal shift assay (DSF, SYPRO Orange), 2 uM kinase domain, mean delta Tm of triplicates versus DMSO
# conditions: read-out: AAK1
recorded-endpoint: ΔTm at 12.5 µM (°C)
One number for each entry, in °C.

- compound: "C[C@@H]1CCN(C(=O)CC#N)C[C@@H]1N(C)c1ncnc2[nH]ccc12 [Tofacitinib]"
  observed-measurement: 0.68

For each listed entry, give its ΔTm at 12.5 µM.
1. Nc1cc(C(F)(F)F)c(-c2cc(N3CCOCC3)nc(N3CCOCC3)n2)cn1 [Buparlisib]
2. CC(C)(C)Cn1c(N)nc2ccc(-c3[nH]c(C(C)(C)C)nc3-c3ccc(F)cc3)nc21 [Ralimetinib]
3. CCn1c(C(=O)N(C2CC2)C2CC2)cc2c3c(ncn3C)c(Nc3cc(C)n(C)n3)nc21 [BMS-911543]
4. CN[C@@H]1C[C@H]2O[C@@](C)([C@@H]1OC)n1c3ccccc3c3c4c(c5c6ccccc6n2c5c31)C(=O)N[C@H]4O [UCN-01]

1. 0.317
2. 0.397
3. 1.25
4. 9.91

* * *

# study-target: AAK1 (Homo sapiens)
# run-description: biochemical
# Design: kinase domain; Thermal shift assay (DSF, SYPRO Orange), 2 uM kinase domain, mean delta Tm of triplicates versus DMSO
# conditions: read-out: AAK1
recorded-endpoint: ΔTm at 12.5 µM (°C)
Answers are plain numbers, in °C.

As a guide, the following entries are already answered.
- molecule: "COc1cc2nccc(Oc3ccc(NC(=O)C4(C(=O)Nc5ccc(F)cc5)CC4)cc3)c2cc1OC [Cabozantinib]"
  quantity-unit: "°C"
  ΔTm at 12.5 µM: 0.82
- molecule: "NC1(c2ccc(-c3nc4ccn5c(=O)[nH]nc5c4cc3-c3ccccc3)cc2)CCC1"
  quantity-unit: "°C"
  ΔTm at 12.5 µM: 1.1

We next turn to a different molecule, shown below.
Retrieve ΔTm at 12.5 µM measured for "FC(F)c1nc2ccccc2n1-c1nc(N2CCOCC2)nc(N2CCOCC2)n1" and print it. 0.383

Values from paper PMC4780864
